assay: pH solubility of Compound 1 MSA Salt Form 1; type: physicochemical; settings: 22 °C, aqueous buffer, thermodynamic from solid; from pH solubility profile of MSA Salt Form 1; read-out: Solubility for the free-base

Compound | solubility at 24 h
C[C@@H](C(=O)Nc1ccc(Cl)cc1)[C@H]1CC[C@@H](c2ccnc3ccc(F)cc32)CC1 [Compound 1] | 1 to 2 µg/mL
